molecular target: Amine oxidase [flavin-containing] A (Rattus norvegicus); assay: In vitro inhibitory concentration against Monoamine oxidase A of rat brain homogenates; value ranges from 600-1100; format: tissue-based
Sequence (P21396 whole entry): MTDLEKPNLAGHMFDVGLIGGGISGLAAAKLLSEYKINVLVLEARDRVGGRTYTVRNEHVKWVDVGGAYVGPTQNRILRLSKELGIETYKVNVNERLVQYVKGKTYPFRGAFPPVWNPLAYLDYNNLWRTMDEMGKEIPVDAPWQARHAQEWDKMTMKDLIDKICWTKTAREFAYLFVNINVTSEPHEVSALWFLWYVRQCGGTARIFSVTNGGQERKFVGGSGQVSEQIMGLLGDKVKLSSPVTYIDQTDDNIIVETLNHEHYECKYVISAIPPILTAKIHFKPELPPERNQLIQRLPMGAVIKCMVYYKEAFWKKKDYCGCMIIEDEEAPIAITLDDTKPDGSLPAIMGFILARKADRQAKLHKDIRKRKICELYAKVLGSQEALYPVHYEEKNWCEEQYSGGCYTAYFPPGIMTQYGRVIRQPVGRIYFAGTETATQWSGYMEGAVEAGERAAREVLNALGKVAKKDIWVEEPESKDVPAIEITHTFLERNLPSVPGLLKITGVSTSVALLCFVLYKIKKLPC
READOUT LABEL: IC50 (µM)
Numbers only, in µM.

Item: C#CCNC(C)Cc1cccc(O)c1 (stereo unspecified) | IC50: 830

---

target: Acetylcholinesterase (Homo sapiens, UniProt P22303); experiment: In vitro inhibitory concentration against purified Acetylcholinesterase of human erythrocytes; value ranges from […]-[…]
Sequence (P22303 whole entry): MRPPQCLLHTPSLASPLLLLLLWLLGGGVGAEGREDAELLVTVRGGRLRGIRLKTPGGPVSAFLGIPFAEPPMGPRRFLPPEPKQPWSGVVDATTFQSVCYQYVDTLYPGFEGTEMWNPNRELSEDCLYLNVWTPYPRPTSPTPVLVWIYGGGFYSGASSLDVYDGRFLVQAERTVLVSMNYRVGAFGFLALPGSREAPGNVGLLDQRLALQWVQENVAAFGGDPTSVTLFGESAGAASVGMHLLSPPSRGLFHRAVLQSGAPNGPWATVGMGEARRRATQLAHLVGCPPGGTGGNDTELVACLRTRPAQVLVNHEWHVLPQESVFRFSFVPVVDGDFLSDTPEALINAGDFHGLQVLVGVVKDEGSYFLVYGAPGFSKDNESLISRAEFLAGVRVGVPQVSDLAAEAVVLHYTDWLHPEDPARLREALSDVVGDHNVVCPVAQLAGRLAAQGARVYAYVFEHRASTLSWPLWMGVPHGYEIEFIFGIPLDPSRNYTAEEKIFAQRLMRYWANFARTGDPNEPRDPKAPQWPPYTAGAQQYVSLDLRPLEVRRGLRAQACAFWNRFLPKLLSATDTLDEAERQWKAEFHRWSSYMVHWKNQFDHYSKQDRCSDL
READOUT LABEL: pIC50
Give bare numbers, as −log10 of the molar value.

# count of solved cases: 5
COMPOUND	TESTED ON	ASSAY RESULT
C#CCNC1CCc2ccc(OC(=O)NCC)cc21 (stereo not drawn)	Acetylcholinesterase (Homo sapiens, UniProt P22303)	4.86
CCNC1CCc2ccc(OC(=O)N(C)C)cc21 (stereo not drawn)	Acetylcholinesterase (Homo sapiens, UniProt P22303)	4.61
CNC1CCc2ccc(OC(=O)N(C)C)cc21 (stereo not drawn)	Acetylcholinesterase (Homo sapiens, UniProt P22303)	5.97
COc1ccc(N(C)C(=O)Oc2ccc3c(c2)C(N)CC3)cc1 (stereo not drawn)	Acetylcholinesterase (Homo sapiens, UniProt P22303)	6.52
C#CCNC1CCc2ccc(OC(=O)N(CC)C3CCCCC3)cc21 (stereo not drawn)	Acetylcholinesterase (Homo sapiens, UniProt P22303)	4.75

Quick batch: pIC50 for everything below.
1. CCCNC1CCc2ccc(OC(=O)N(C)CC)cc21 (stereo not drawn)
2. CCN(C)C(=O)Oc1ccc2c(c1)[C@H](N)CC2
3. CNC1CCc2cccc(OC(=O)N(C)C)c21 (stereo not drawn)

Given back:
1: 5.44; 2: 5.21; 3: 6.29
